- Test system: Candida parapsilosis
- assay_protocol: Antifungal activity against Candida parapsilosis after 48 hrs by broth microdilution method
- Assay type: functional
- condition_parameters: Lodderomyces parapsilosis
Residues, ends and D or L forms follow the SMILES beside them.
quantity_name: MIC (µg/mL)
The reply should contain only the number, in µg/mL.

Name the recorded MIC for N=C(N)NCCC[C@@H]1NC(=O)[C@H](CCCNC(=N)N)NC(=O)[C@H](Cc2ccccc2)NC(=O)[C@H](CCCNC(=N)N)NC(=O)[C@H](Cc2c[nH]c3ccccc23)NC(=O)[C@H](Cc2c[nH]c3ccccc23)NC1=O (cyclo(RRWWRF)) .
32

N=C(N)NCCC[C@@H]1NC(=O)[C@H](CCCNC(=N)N)NC(=O)[C@H](Cc2c[nH]c3ccccc23)NC(=O)[C@H](Cc2c[nH]c3ccccc23)NC(=O)[C@H](CCCNC(=N)N)NC(=O)[C@H](Cc2ccccc2)NC(=O)[C@H](Cc2c[nH]cn2)NC(=O)CNC(=O)[C@H](Cc2c[nH]cn2)NC1=O (cyclo(FRWWRRHGH)) , same question.
32

Same for N=C(N)NCCC[C@@H]1NC(=O)[C@H](CCCNC(=N)N)NC(=O)[C@H](Cc2c[nH]c3ccccc23)NC(=O)[C@H](Cc2c[nH]c3ccccc23)NC(=O)[C@H](CCCNC(=N)N)NC(=O)[C@H](Cc2ccccc2)NC(=O)[C@H](Cc2c[nH]cn2)NC1=O (cyclo(FRWWRRH))
64

# iterate: OC(Cn1cncn1)(Cn1cncn1)c1ccc(F)cc1F [FLUCONAZOLE]
1

Likewise for C[C@@H]1[C@H](O)[C@@H](C)/C=C/C=C/C=C/C=C/C=C/C=C/C=C/[C@H](O[C@@H]2O[C@H](C)[C@@H](O)[C@H](N)[C@@H]2O)C[C@@H]2O[C@](O)(C[C@@H](O)C[C@@H](O)[C@H](O)CC[C@@H](O)C[C@@H](O)CC(=O)O[C@H]1C)C[C@H](O)[C@H]2C(=O)O [AMPHOTERICIN B] ?
0.06

====

- Test system: Candida albicans
- assay_protocol: Antifungal activity against Candida albicans after 48 hrs by broth microdilution method
- Assay type: functional
Starred links: 1 amine or outer side, 2 acyl side, 3 side chain; linkers in the order of their positions; H or OH if unused. Non-standard residues stand in square brackets, D forms with d. Residues, ends and D or L forms follow the SMILES beside them. X1 = O=C([C@H](CC1=NC=NC1)N[*:1])[*:2]
quantity_name: log10 MIC (log10 of the value in µg/mL)
The base-10 logarithm of MIC, taken with MIC in µg/mL, is what appears here.

Any idea what its log10 MIC is? The compound is N=C(N)NCCC[C@@H]1NC(=O)[C@H](CCCNC(=N)N)NC(=O)[C@H](Cc2ccccc2)NC(=O)[C@H](CCCNC(=N)N)NC(=O)[C@H](Cc2c[nH]c3ccccc23)NC(=O)[C@H](Cc2c[nH]c3ccccc23)NC1=O (cyclo(RRWWRF))
2.11

Consider next the compound N=C(N)NCCC[C@@H]1NC(=O)[C@H](CCCNC(=N)N)NC(=O)[C@H](Cc2c[nH]c3ccccc23)NC(=O)[C@H](Cc2c[nH]c3ccccc23)NC(=O)[C@H](CCCNC(=N)N)NC(=O)[C@H](Cc2ccccc2)NC(=O)[C@H](Cc2c[nH]cn2)NC1=O (cyclo(FRWWRRH)) in the same way.
1.81

Would you mind doing C[C@@H]1[C@H](O)[C@@H](C)/C=C/C=C/C=C/C=C/C=C/C=C/C=C/[C@H](O[C@@H]2O[C@H](C)[C@@H](O)[C@H](N)[C@@H]2O)C[C@@H]2O[C@](O)(C[C@@H](O)C[C@@H](O)[C@H](O)CC[C@@H](O)C[C@@H](O)CC(=O)O[C@H]1C)C[C@H](O)[C@H]2C(=O)O as well?
-1.52

Input OC(Cn1cncn1)(Cn1cncn1)c1ccc(F)cc1F
-0.90

Cool, now N=C(N)NCCC[C@H](NC(=O)[C@H](Cc1c[nH]c2ccccc12)NC(=O)[C@H](Cc1c[nH]c2ccccc12)NC(=O)[C@H](CCCNC(=N)N)NC(=O)[C@H](CCCNC(=N)N)NC(=O)[C@H](CC1=NC=NC1)NC(=O)CNC(=O)[C@@H](N)Cc1c[nH]cn1)C(=O)N[C@@H](Cc1ccccc1)C(=O)O (H-HG[X1]RRWWRF-OH)
2.41

And what about the compound N=C(N)NCCC[C@@H]1NC(=O)[C@H](CCCNC(=N)N)NC(=O)[C@H](Cc2c[nH]c3ccccc23)NC(=O)[C@H](Cc2c[nH]c3ccccc23)NC(=O)[C@H](CCCNC(=N)N)NC(=O)[C@H](Cc2ccccc2)NC(=O)[C@H](Cc2c[nH]cn2)NC(=O)CNC(=O)[C@H](Cc2c[nH]cn2)NC1=O (cyclo(FRWWRRHGH)) ?
1.51

====

- Tested on: Candida tropicalis
- assay_protocol: Antifungal activity against Candida tropicalis after 48 hrs by broth microdilution method
- Assay type: functional
Residues, ends and D or L forms follow the SMILES beside them.
quantity_name: MIC (µg/mL)
Answer format: numeric, µg/mL implied, no suffix.

Form field: reported MIC of N=C(N)NCCC[C@@H]1NC(=O)[C@H](CCCNC(=N)N)NC(=O)[C@H](Cc2ccccc2)NC(=O)[C@H](CCCNC(=N)N)NC(=O)[C@H](Cc2c[nH]c3ccccc23)NC(=O)[C@H](Cc2c[nH]c3ccccc23)NC1=O (cyclo(RRWWRF))
128

Would you kindly repeat that for OC(Cn1cncn1)(Cn1cncn1)c1ccc(F)cc1F ?
0.5

Please do the same for C[C@@H]1[C@H](O)[C@@H](C)/C=C/C=C/C=C/C=C/C=C/C=C/C=C/[C@H](O[C@@H]2O[C@H](C)[C@@H](O)[C@H](N)[C@@H]2O)C[C@@H]2O[C@](O)(C[C@@H](O)C[C@@H](O)[C@H](O)CC[C@@H](O)C[C@@H](O)CC(=O)O[C@H]1C)C[C@H](O)[C@H]2C(=O)O as well.
0.03

====

- Test system: Candida tropicalis
- assay_protocol: Antifungal activity against Candida tropicalis after 48 hrs by broth microdilution method
- Format: functional
Starred links: 1 amine or outer side, 2 acyl side, 3 side chain; linkers in the order of their positions; H or OH if unused. Non-standard residues stand in square brackets, D forms with d. Residues, ends and D or L forms follow the SMILES beside them. X1 = O=C([C@H](CC1=NC=NC1)N[*:1])[*:2]
quantity_name: MIC (mg/L)
The figure you give is taken to be in mg/L; do not add the unit.

Quick check: MIC of N=C(N)NCCC[C@@H]1NC(=O)[C@H](CCCNC(=N)N)NC(=O)[C@H](Cc2c[nH]c3ccccc23)NC(=O)[C@H](Cc2c[nH]c3ccccc23)NC(=O)[C@H](CCCNC(=N)N)NC(=O)[C@H](Cc2ccccc2)NC(=O)[C@H](Cc2c[nH]cn2)NC1=O (cyclo(FRWWRRH)) ?
64

Can you handle N=C(N)NCCC[C@H](NC(=O)[C@H](Cc1c[nH]c2ccccc12)NC(=O)[C@H](Cc1c[nH]c2ccccc12)NC(=O)[C@H](CCCNC(=N)N)NC(=O)[C@H](CCCNC(=N)N)NC(=O)[C@H](CC1=NC=NC1)NC(=O)CNC(=O)[C@@H](N)Cc1c[nH]cn1)C(=O)N[C@@H](Cc1ccccc1)C(=O)O (H-HG[X1]RRWWRF-OH) next?
256

Then this molecule: N=C(N)NCCC[C@@H]1NC(=O)[C@H](CCCNC(=N)N)NC(=O)[C@H](Cc2c[nH]c3ccccc23)NC(=O)[C@H](Cc2c[nH]c3ccccc23)NC(=O)[C@H](CCCNC(=N)N)NC(=O)[C@H](Cc2ccccc2)NC(=O)[C@H](Cc2c[nH]cn2)NC(=O)CNC(=O)[C@H](Cc2c[nH]cn2)NC1=O (cyclo(FRWWRRHGH))
32

====

Can you tell me MIC90 for the items I'm about to list?
- Test system: Candida tropicalis
- assay_protocol: Antifungal activity against Candida tropicalis after 48 hrs by broth microdilution method
- Assay type: functional
Starred links: 1 amine or outer side, 2 acyl side, 3 side chain; linkers in the order of their positions; H or OH if unused. Non-standard residues stand in square brackets, D forms with d. Residues, ends and D or L forms follow the SMILES beside them. X1 = O=C([C@H](CC1=NC=NC1)N[*:1])[*:2]

Query: MIC90; subject: OC(Cn1cncn1)(Cn1cncn1)c1ccc(F)cc1F
2 µg/mL

Same thing, different molecule: N=C(N)NCCC[C@@H]1NC(=O)[C@H](CCCNC(=N)N)NC(=O)[C@H](Cc2ccccc2)NC(=O)[C@H](CCCNC(=N)N)NC(=O)[C@H](Cc2c[nH]c3ccccc23)NC(=O)[C@H](Cc2c[nH]c3ccccc23)NC1=O (cyclo(RRWWRF))
512 µg/mL

What would you report for C[C@@H]1[C@H](O)[C@@H](C)/C=C/C=C/C=C/C=C/C=C/C=C/C=C/[C@H](O[C@@H]2O[C@H](C)[C@@H](O)[C@H](N)[C@@H]2O)C[C@@H]2O[C@](O)(C[C@@H](O)C[C@@H](O)[C@H](O)CC[C@@H](O)C[C@@H](O)CC(=O)O[C@H]1C)C[C@H](O)[C@H]2C(=O)O ?
0.06 µg/mL

N=C(N)NCCC[C@@H]1NC(=O)[C@H](CCCNC(=N)N)NC(=O)[C@H](Cc2c[nH]c3ccccc23)NC(=O)[C@H](Cc2c[nH]c3ccccc23)NC(=O)[C@H](CCCNC(=N)N)NC(=O)[C@H](Cc2ccccc2)NC(=O)[C@H](Cc2c[nH]cn2)NC1=O (cyclo(FRWWRRH)) ?
256 µg/mL

Continue with N=C(N)NCCC[C@H](NC(=O)[C@H](Cc1c[nH]c2ccccc12)NC(=O)[C@H](Cc1c[nH]c2ccccc12)NC(=O)[C@H](CCCNC(=N)N)NC(=O)[C@H](CCCNC(=N)N)NC(=O)[C@H](CC1=NC=NC1)NC(=O)CNC(=O)[C@@H](N)Cc1c[nH]cn1)C(=O)N[C@@H](Cc1ccccc1)C(=O)O (H-HG[X1]RRWWRF-OH)
> 512 µg/mL

N=C(N)NCCC[C@@H]1NC(=O)[C@H](CCCNC(=N)N)NC(=O)[C@H](Cc2c[nH]c3ccccc23)NC(=O)[C@H](Cc2c[nH]c3ccccc23)NC(=O)[C@H](CCCNC(=N)N)NC(=O)[C@H](Cc2ccccc2)NC(=O)[C@H](Cc2c[nH]cn2)NC(=O)CNC(=O)[C@H](Cc2c[nH]cn2)NC1=O (cyclo(FRWWRRHGH)) , same question.
128 µg/mL

All values here come from ChEMBL document CHEMBL1275362.
